Organism: Rattus norvegicus
assay.info: Open TG-GATES - Regimen: Single
Type: toxicity, organism-based, Sprague-Dawley
Parameters: regimen Single, gender Male, age 6 weeks
experimental.conditions: in vivo, po, 0 mg/kg, 6 h, tissue Plasma, route gavage, dose level Control
measurement.label: TC (mg/dL)
Write it as a number; the unit mg/dL goes unstated.

Sample NS(=O)(=O)c1cc(C(=O)O)c(NCc2ccco2)cc1Cl [FUROSEMIDE] — what was its TC? 80.4

And then CN(C)CCCN1c2ccccc2Sc2ccc(Cl)cc21 [CHLORPROMAZINE] , what is it? 75.8

And then O=c1ccc2ccccc2o1 [COUMARIN] , what is it? 82

And then CCO [ALCOHOL] , what is it? 80.8

And then Nc1ccc(Cc2ccc(N)cc2)cc1 , what is it? 71.2

* * *

Organism: Rattus norvegicus
assay.info: Open TG-GATES - Regimen: Single
Assay type: toxicity, organism-based, Sprague-Dawley
Parameters: regimen Single, gender Male, age 6 weeks
experimental.conditions: in vivo, po, 0 mg/kg, 3 h, tissue Plasma, route gavage, dose level Control
measurement.label: Na (meq/L)
Write it as a number; the unit meq/L goes unstated.

Sample NS(=O)(=O)c1cc(C(=O)O)c(NCc2ccco2)cc1Cl [FUROSEMIDE] — what was its Na? 142.4

And then Nc1ccc(Cc2ccc(N)cc2)cc1 , what is it? 141.2

And then COc1ccc([C@@H]2Sc3ccccc3N(CCN(C)C)C(=O)[C@@H]2OC(C)=O)cc1 , what is it? 142

And then CCN(CC)C(=S)SSC(=S)N(CC)CC , what is it? 141.4

And then O=C(O)c1ccccc1Nc1ccccc1 , what is it? 144

And then CN(C)CCCN1c2ccccc2Sc2ccc(Cl)cc21 , what is it? 141.6

And then O=c1ccc2ccccc2o1 , what is it? 138.6

And then CN(C/C=C/C#CC(C)(C)C)Cc1cccc2ccccc12 , what is it? 140.8

And then CC(=O)[C@@]1(O)CC[C@H]2[C@@H]3C=C(Cl)C4=CC(=O)CC[C@]4(C)[C@H]3CC[C@@]21C , what is it? 142.2

And then C=C[C@H]1C[N@@]2CC[C@H]1C[C@@H]2[C@@H](O)c1ccnc2ccc(OC)cc12 , what is it? 143.8

* * *

Species on record: Rattus norvegicus
assay.info: Open TG-GATES - Regimen: Single
Format: toxicity, organism-based, Sprague-Dawley
Design: regimen Single, gender Male, age 6 weeks
experimental.conditions: in vivo, po, 0 mg/kg, 3 h, tissue Blood, route gavage, dose level Control
measurement.label: PT (s)
Write it as a number; the unit s goes unstated.

Sample CC(S)C(=O)NCC(=O)O (stereo not drawn) [TIOPRONIN] — what was its PT? 16.1

And then CC(=O)[C@@]1(O)CC[C@H]2[C@@H]3C=C(Cl)C4=CC(=O)CC[C@]4(C)[C@H]3CC[C@@]21C [CHLORMADINONE] , what is it? 15.5

And then O=C(O)c1ccccc1Nc1ccccc1 [FENAMIC ACID] , what is it? 14

And then CN(C/C=C/C#CC(C)(C)C)Cc1cccc2ccccc12 [TERBINAFINE] , what is it? 12.1

And then COc1ccc([C@@H]2Sc3ccccc3N(CCN(C)C)C(=O)[C@@H]2OC(C)=O)cc1 [DILTIAZEM] , what is it? 14.3

And then NS(=O)(=O)c1cc(C(=O)O)c(NCc2ccco2)cc1Cl [FUROSEMIDE] , what is it? 15.6

And then CCCCNC(=O)NS(=O)(=O)c1ccc(C)cc1 [TOLBUTAMIDE] , what is it? 12.9

And then CN(C)CCCN1c2ccccc2Sc2ccc(Cl)cc21 [CHLORPROMAZINE] , what is it? 12.5

And then CCO [ALCOHOL] , what is it? 12

And then O=c1ccc2ccccc2o1 [COUMARIN] , what is it? 12.3

And then CCN(CC)C(=S)SSC(=S)N(CC)CC , what is it? 16.5

And then CN(CCOc1ccc(CC2SC(=O)NC2=O)cc1)c1ccccn1.O=C(O)/C=C\C(=O)O (stereo not drawn) [ROSIGLITAZONE MALEATE] , what is it? 12

And then Nc1ccc(Cc2ccc(N)cc2)cc1 , what is it? 11.7
